assay: caspase-8 TRAIL sensitization, hit retest, confirmation, cell-based, NB7+caspase-8, with/without TRAIL, luminescence panel (AID 651596); settings: NB7 neuroblastoma + caspase-8, without TRAIL, luminescence viability, without TRAIL, mean of runs, at 10 µM
reported_property: activity

> print(dat)
                                   compound  observed.value
1  Cc1ccc(N=C/C(C(=O)C(F)(F)F)=C(\O)c2cccs2)cc1           53.8%
2            O=C(Nc1nc2ccccc2[nH]1)c1ccccc1           84.5%
3        c1cc2c(cc1C1=NNC(=NC3CC3)SC1)OCCO2           90.9%
4  O=[N+]([O-])c1ccc(-[n+]2ccc3ccccc3c2)c([N+](=O)[O-])c1           98.8%
5  CS(=O)c1nc(-c2ccc(Br)cc2)cc(-c2ccccc2)c1C#N (stereo not given)           97.8%

Req: What measured activity goes with C=C1CC(COc2cc(=O)oc3ccccc23)(c2ccccc2)OC1=O (stereo not given) ?
Resp: 96.5%

Req: What measured activity goes with CCc1ccc2nc(N(CCCN(C)C)C(=O)c3ccc(S(=O)(=O)N4CCCc5ccccc54)cc3)sc2c1 ?
Resp: 63.9%

----------
assay: inhibition of Brca1/Bard1 split-luciferase complementation, confirmation, counter-screen for Mdm2/MdmX interaction inhibitor project, luminescence, single concentration (AID 504668); settings: Brca1/Bard1 bimolecular luciferase complementation counterscreen, at 8 µM, stronger effect = higher value
Reported inhibition by item:
Quick note: give the figure in %, leave out the unit.

Req: What measured inhibition goes with CCOc1ccc(C(=O)N/N=C(\c2ccccc2)c2ccccn2)cc1 ?
Resp: 30.1

Req: What measured inhibition goes with Cc1ccc2cc(CN(CC3CCCO3)C(=S)Nc3ccccc3)c(=O)[nH]c2c1C (stereo unspecified) ?
Resp: 35.3

Req: What measured inhibition goes with CC(C)c1cc(C(=O)NC2CCCc3c2cnn3-c2ccccc2F)no1 (stereo unspecified) ?
Resp: 29.3

Req: What measured inhibition goes with COc1ccc(NC(=O)c2nc(S(=O)(=O)Cc3cccc(C)c3)ncc2Cl)c(OC)c1 ?
Resp: 23.1

Req: What measured inhibition goes with COc1ccc(C(C)=O)cc1CSc1nnc(-c2ccc(Cl)cc2)n1-c1ccccc1 ?
Resp: 25.6

Req: What measured inhibition goes with O=C(CCl)N1N=C(c2ccco2)CC1c1ccco1 (stereo unspecified) ?
Resp: 31.2

----------
target: Tumor necrosis factor receptor superfamily member 10B (Homo sapiens); experiment: caspase-8 TRAIL sensitization, hit retest, confirmation, cell-based, NB7+caspase-8, with/without TRAIL, luminescence panel (AID 651596); conditions: NB7 neuroblastoma + caspase-8, TRAIL sensitization, luminescence viability, with TRAIL, mean of runs, at 10 µM, stronger effect = higher value
Lab note: compare activity with 90%, writing satisfied if less and not satisfied if equal or more.

A selection of reference data follows.
> print(dat)
                               compound          group
1         O=C(CCl)N1c2ccccc2CCc2ccccc21  not satisfied
2     Cc1ccc(/C=N/NC(=O)c2cc(C)oc2C)cc1      satisfied
3  COC(=O)c1ccc2nc(NC(=O)C(C)(C)C)sc2c1  not satisfied

Req: Just wondering, is activity of Cc1nc2cc(NC(=O)N3c4ccccc4CC3C)ccc2n1C (stereo unspecified) below 90%?
Resp: satisfied

Req: Just wondering, is activity of O=C(CCl)N=c1sccn1Cc1ccccc1Cl below 90%?
Resp: not satisfied

Req: Just wondering, is activity of Cc1ccc(C2CC2c2n[nH]c(=S)n2-c2ccc(Cl)cc2)cc1 (stereo unspecified) below 90%?
Resp: satisfied
